These entries and their values trace back to patent US11814435B2.

- system-under-test: cyBCMA
- test-details: Kinetics and affinity of cyBCMA/human IgG interactions by SPR (Bio-Rad Proteon XPR36)
- Assay type: binding, cynomolgus
- condition-context: 37° C.
metric: kd (1/s) cyBCMA @37° C. (s⁻¹)
Please respond with the number in s⁻¹ and leave the unit unwritten.

Value of measured kd (1/s) cyBCMA @37° C. for the entry L3.PY/L1.FF/H2.DY: anti-BCMA antibody (antibody, V domains shown) VH: EVQLLESGGGLVQPGGSLRLSCAASGFTFGSYAMTWVRQAPGKGLEWVSAIDYSGGNTFYADSVKGRFTISRDNSKNTLYLQMNSLRAEDTAVYYCARVSPIASGMDYWGQGTLVTVSS VL: EIVLTQSPGTLSLSPGERATLSCRASQSVSSFFLAWYQQKPGQAPRLLIYGASSRATGIPDRFSGSGSGTDFTLTISRLEPEDFAVYYCQHYPYPPSFTFGQGTKVEIK : 0.005
